# assay: Metabolic stability, human microsomes
# Type: in vitro ADME
# particulars: % of the initial 0 minutes value at 60 min, 10 μM, 37° C.
experimental_readout: Metabolic Stability 60 min hum (%)

Completed entries (count: 6):
test_smiles	Metabolic Stability 60 min hum (%)
CN1CC(=O)N2C[C@H](NC(=O)CCC(=O)O)C[C@H]2COc2ccc(cc2)C(=O)N(C)[C@H](C(=O)NCc2ccncc2)CCC1=O	99
CN(C)CCNC(=O)[C@@H]1CCC(=O)N(C)CC(=O)N2C[C@@H](NC(=O)Cc3cccc4ccccc34)C[C@H]2COc2ccc(F)cc2C(=O)N1C	10
CC(=O)N[C@H]1C[C@H]2COc3ccc(F)cc3C(=O)N(C)[C@H](C(=O)N3CCCC3)CCC(=O)N(C)CC(=O)N2C1	100
CCN(CC)[C@@H]1C[C@H]2COc3ccc(cc3)C(=O)N(C)[C@H](C(=O)NCc3ccc4ccccc4c3)CCC(=O)N(C)CC(=O)N2C1	0
CN1CC(=O)N2C[C@@H](NC(=O)Cc3c[nH]c4ccccc34)C[C@H]2COc2ccc(F)cc2C(=O)N(C)[C@H](C(=O)NCCc2c[nH]c3ccccc23)CCC1=O	7
CN1CC(=O)N2C[C@@H](NC(=O)CN3CCCC3)C[C@H]2COc2ccc(F)cc2C(=O)N(C)[C@@H](C(=O)N2CCCC2)CCC1=O	97

(I) CCN(CC)[C@H]1C[C@H]2COc3ccc(F)cc3C(=O)N(C)[C@H](C(=O)N3CCCC3)CCC(=O)N(C)CC(=O)N2C1
(II) CCCCCCCCCC(=O)N[C@H]1CN(C)C(=O)c2cccc(c2)OC[C@@H]2C[C@H](NC(=O)Cc3c[nH]c4ccccc34)CN2C(=O)CN(C)C1=O
(III) CCCCCCCCCC(=O)N[C@H]1C[C@H]2COc3ccc(F)cc3C(=O)N(C)[C@H](C(=O)NCc3ccc4ccccc4c3)CCC(=O)N(C)CC(=O)N2C1
**Query** # ascending order, key=Metabolic Stability 60 min hum Reply with the labels, ordered as the question asks.
**Result** II, III, I
(II: 0%, III: 4%, I: 100%)

(P) CC(=O)N[C@H]1CN(C)C(=O)c2cccc(c2)OC[C@@H]2C[C@H](NC(=O)CN(C)C)CN2C(=O)CN(C)C1=O
(Q) CCCCC(=O)N[C@H]1C[C@H]2COc3ccc(F)cc3C(=O)N(C)[C@@H](C(=O)NCc3ccc4ccccc4c3)CCC(=O)N(C)CC(=O)N2C1
**Query** Looking only at measured Metabolic Stability 60 min hum, which entry is lower, P or Q ? Refer to your chosen item by its label in the answer.
**Result** Q
(Q: 22%, P: 84%)

(A) CN(C)CC(=O)N[C@@H]1C[C@H]2COc3cccc(c3)C(=O)N(C)C[C@H](NC(=O)Cc3ccc4ccccc4c3)C(=O)N(C)CC(=O)N2C1
(B) CN1CC(=O)N2C[C@@H](N)C[C@H]2COc2ccc(F)cc2C(=O)N(C)[C@@H](C(=O)NCc2ccc3ccccc3c2)CCC1=O
**Query** Identify the entry with the smaller Metabolic Stability 60 min hum: A or B . Give the label under which the chosen entry appears.
**Result** A
(A: 61%, B: 91%)
